- measured.on: γ-secretase complex (Homo sapiens, UniProt P49768)
- protocol.details: APP-C99 counter assay (GSI reporter assay)
- Assay type: cell-based
- assay.setup: 14p dose response, single replicates; read-out: approximated IC50s 14p APP counter assay averaged
observed.property: IC50 (µM)
Numbers only, in µM.

Ask: Item C[C@H](NC(=O)Cc1cc(F)cc(F)c1)C(=O)N[C@H](C(=O)OC(C)(C)C)c1ccccc1 [DAPT, reference compound] : provide IC50
Reply: 5.2

====

- measured.on: DHODH (Homo sapiens, UniProt Q02127)
- Construct: purchased Reaction Biology (contract assay)
- Sequence (Q02127 whole entry): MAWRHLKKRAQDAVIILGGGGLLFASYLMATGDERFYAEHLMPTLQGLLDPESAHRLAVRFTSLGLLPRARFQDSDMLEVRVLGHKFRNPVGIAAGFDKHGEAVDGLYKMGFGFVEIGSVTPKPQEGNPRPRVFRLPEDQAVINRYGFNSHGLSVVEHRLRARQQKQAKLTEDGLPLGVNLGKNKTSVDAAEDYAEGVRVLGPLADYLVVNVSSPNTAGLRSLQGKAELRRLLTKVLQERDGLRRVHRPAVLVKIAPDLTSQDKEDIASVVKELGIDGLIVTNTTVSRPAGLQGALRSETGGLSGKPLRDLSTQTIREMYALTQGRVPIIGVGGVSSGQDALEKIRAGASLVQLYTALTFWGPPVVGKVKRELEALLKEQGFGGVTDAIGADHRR
- protocol.details: DHODH enzyme activity assay (Resorufin fluorescence, Reaction Biology)
- Assay type: biochemical
- assay.setup: broader dose range; Fig. 7D; read-out: IC50, relative DHODH activity
observed.property: IC50 (nM)
Numbers only, in nM.

Ask: Recall the reported IC50 of COc1cccc(CNc2ccc(N3CCCCC3)cc2)c1OCc1cccs1 when tested on DHODH (Homo sapiens, UniProt Q02127).
Reply: 10.1

====

- measured.on: γ-secretase complex (Homo sapiens)
- protocol.details: APP-C99 counter assay (GSI reporter assay)
- Type: cell-based
- assay.setup: 14p APP assay DR; bottom constrained to Emax of positive control LY-411575
Please use criterion met whenever Hill-slope is not below 0.04, and criterion not met whenever it is.

Please review the following examples before continuing.
| compound | assigned.category |
| --- | --- |
| COc1ccc2[nH]c3c(c2c1)CCOC31CCN(C(=O)c2cccc3cccc(C(=O)O)c23)CC1 | criterion met |
| COc1ccc(C(=O)N2Cc3nc[nH]c3C[C@H]2c2nc(-c3ccc(OC)cc3)no2)cc1 | criterion not met |
| COc1cc(Nc2nc(-c3ccccc3)cn3ccnc23)cc(OC)c1OC | criterion met |

Ask: Quick check: does COc1ccc(-c2cn3ccnc3c(Nc3cc(OC)c(OC)c(OC)c3)n2)cc1OC have Hill-slope greater than or equal to 0.04?
Reply: criterion met

Ask: State whether the measured Hill-slope reaches 0.04, counting equality as reaching it, for CCOC(=O)c1c(NC(=O)NCc2cccnc2)sc2c1CCC2
Reply: criterion not met

====

- measured.on: γ-secretase complex (Homo sapiens, UniProt P49768)
- protocol.details: APP-C99 counter assay (GSI reporter assay)
- Type: cell-based
- assay.setup: 14p dose response; AUCs averaged when replicates available
observed.property: AUC. 14p APP-counter assay
One number for each entry.

Some compounds with known AUC. 14p APP-counter assay results, for comparison:
| compound | observed.property | numeric.result |
| --- | --- | --- |
| CC(C)(C(=O)NCC(F)(F)C(F)(F)F)C(=O)N[C@@H]1C(=O)Nc2ccccc2-c2ccccc21 [RO4929097, reference compound] | AUC. 14p APP-counter assay | 5.27E+02 |
| NC(=O)[C@@H](CC1CC1)[C@@H](CCC(F)(F)F)C(=O)N[C@H]1N=C(c2ccccc2)c2cccc(F)c2NC1=O [BMS-983970, reference compound] | AUC. 14p APP-counter assay | 4.87E+02 |
| C[C@H](NC(=O)Cc1cc(F)cc(F)c1)C(=O)N[C@@H]1C(=O)N(C)c2ccccc2-c2ccccc21 [YO-01027, reference compound] | AUC. 14p APP-counter assay | 4.62E+02 |
| C[C@H](NC(=O)[C@@H](O)c1cc(F)cc(F)c1)C(=O)N[C@@H]1C(=O)N(C)c2ccccc2-c2ccccc21 [LY-411575, reference compound] | AUC. 14p APP-counter assay | 4.29E+02 |
| CC(C)(C)c1ccc(Oc2ccc(N)cn2)cc1 [CB-103, reference compound] | AUC. 14p APP-counter assay | 5.48E+02 |

Proceed to the following item.
Ask: GET AUC. 14p APP-counter assay where system = γ-secretase complex (Homo sapiens, UniProt P49768) and item = C[C@H](NC(=O)Cc1cc(F)cc(F)c1)C(=O)N[C@H](C(=O)OC(C)(C)C)c1ccccc1 [DAPT, reference compound]
Reply: 5.80E+02
